# system: malate dehydrogenase (Mdh3) (Cryptococcus neoformans, UniProt J9VXN5)
# Construct: Mdh3-MBP fusion protein expressed in S. cerevisiae
# Sequence (J9VXN5 1-338): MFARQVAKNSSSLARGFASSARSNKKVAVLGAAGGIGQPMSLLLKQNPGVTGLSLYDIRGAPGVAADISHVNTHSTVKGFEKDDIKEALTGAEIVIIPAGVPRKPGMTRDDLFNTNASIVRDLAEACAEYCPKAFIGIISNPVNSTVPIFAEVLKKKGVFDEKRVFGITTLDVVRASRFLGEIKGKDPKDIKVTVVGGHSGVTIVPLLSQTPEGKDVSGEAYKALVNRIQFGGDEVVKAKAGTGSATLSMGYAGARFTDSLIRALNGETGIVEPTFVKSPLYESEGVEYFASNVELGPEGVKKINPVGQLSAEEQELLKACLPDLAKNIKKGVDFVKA
# test description: steady-state enzyme kinetics with recombinant Mdh3-MBP, NAD turnover at […] nm, with or without […] bithionol
property: pKi
// pKi: -log10(molar conc.)

Return reported pKi; argument: Oc1c(Cl)cc(Cl)cc1Sc1cc(Cl)cc(Cl)c1O [bithionol]
5.52
